- ASSAYED_SYSTEM: UniProt Q86WV6
- PROTOCOL_NOTES: Fluorescence Thermal Shift assay (hSTING FTS binding assay)
- COND: STING 0.1 mg/ml, 20 min preincubation, SyproOrange
REPORTED_PROPERTY: hSTING FTS binding assay (ΔT C.°)

> print(dat)
                                   molecule                  reported.property           result
1  COc1cc(CN(Cc2cn(C)c3ccccc3c2=O)[C@H]2CCCN(c3cccnc3)C2)ccn1 [Example 1]  hSTING FTS binding assay (ΔT C.°)  ++ (ΔTm>10° C.)
2  Cc1ccc(N2CCC[C@H](N(Cc3ccnc(C)c3)Cc3cn(C4CC4)c4cc(O)c(F)cc4c3=O)C2)cn1 [Example 59]  hSTING FTS binding assay (ΔT C.°)  ++ (ΔTm>10° C.)
3  COc1nc2c(cc1F)c(=O)c(CN(Cc1ccnc(C)c1)[C@H]1CCCN(c3ccc(C)nc3)C1)cn2C1CC1 [Example 44]  hSTING FTS binding assay (ΔT C.°)  ++ (ΔTm>10° C.)
4  COc1cc(N2CCC[C@H](N(Cc3ccnc(C)c3)Cc3cn(C)c4ccccc4c3=O)C2)ccn1 [Example 20]  hSTING FTS binding assay (ΔT C.°)   + (ΔTm<10° C.)
5  Cc1ccc(N2CCC[C@H](N(Cc3ccnc(C)c3)Cc3cn(C)c4cc(N5CCNCC5=O)ccc4c3=O)C2)cn1 [Example 49]  hSTING FTS binding assay (ΔT C.°)   + (ΔTm<10° C.)

Please give measured hSTING FTS binding assay (ΔT C.°) of the following entry: Cc1cc(CN(Cc2cn(C)c3cc(N4CCN(C)CC4)ccc3c2=O)[C@H]2CCCN(c3cccnc3)C2)ccn1 [Example 18]
++ (ΔTm>10° C.)

Please give measured hSTING FTS binding assay (ΔT C.°) of the following entry: Cc1cc(CN(Cc2cn(C)c3ccccc3c2=O)[C@H]2CCCN(c3ccccn3)C2)ccn1 [Example 13]
+ (ΔTm<10° C.)

###

- ASSAYED_SYSTEM: human STING (Homo sapiens, UniProt Q86WV6)
- Sequence (Q86WV6 whole entry H232R): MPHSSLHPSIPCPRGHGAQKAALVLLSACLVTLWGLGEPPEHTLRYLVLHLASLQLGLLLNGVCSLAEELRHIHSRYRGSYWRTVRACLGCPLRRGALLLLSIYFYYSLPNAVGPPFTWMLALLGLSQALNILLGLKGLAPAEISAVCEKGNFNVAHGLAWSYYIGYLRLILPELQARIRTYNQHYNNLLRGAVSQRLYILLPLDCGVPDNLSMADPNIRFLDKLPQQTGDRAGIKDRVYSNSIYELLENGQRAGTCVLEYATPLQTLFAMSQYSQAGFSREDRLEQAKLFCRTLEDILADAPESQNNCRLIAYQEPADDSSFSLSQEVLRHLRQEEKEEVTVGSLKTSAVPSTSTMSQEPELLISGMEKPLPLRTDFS
- PROTOCOL_NOTES: Fluorescence Thermal Shift assay (hSTING FTS binding assay)
- COND: STING 0.1 mg/ml, 20 min preincubation, SyproOrange
REPORTED_PROPERTY: hSTING FTS binding assay (ΔT C.°)

> print(dat)
                                   molecule                            assayed.system           result
1  COC(=O)C1CCN(c2ccc3c(=O)c(CN(Cc4ccnc(C)c4)[C@H]4CCCN(c5cccnc5)C4)cn(C)c3c2)CC1 [Example 29]  human STING (Homo sapiens, UniProt Q86WV6)  ++ (ΔTm>10° C.)
2  Cc1cc(CN(Cc2cn(C3CC3)c3cc(N4CCN(C)CC4)c(F)cc3c2=O)[C@H]2CCCN(c3cccnc3)C2)ccn1 [Example 10]  human STING (Homo sapiens, UniProt Q86WV6)  ++ (ΔTm>10° C.)
3  COc1cc(CN(Cc2cn(C)c3ccccc3c2=O)C2CCCN(c3cccnn3)C2)ccn1 (stereo not drawn) [Example 3]  human STING (Homo sapiens, UniProt Q86WV6)   + (ΔTm<10° C.)
4  Cc1cc(CN(Cc2cn(C)c3ccccc3c2=O)[C@H]2CCCN(c3ccnc(Cl)n3)C2)ccn1 [Example 19]  human STING (Homo sapiens, UniProt Q86WV6)   + (ΔTm<10° C.)

Please give measured hSTING FTS binding assay (ΔT C.°) of the following entry: Cc1cc(CN(Cc2cn(C)c3ccccc3c2=O)C2CCCN(c3cccnc3)C2)ccn1 (stereo not drawn) [Example 2]
++ (ΔTm>10° C.)

Please give measured hSTING FTS binding assay (ΔT C.°) of the following entry: Cc1cc(CN(Cc2cn(C3CC3)c3cc(F)c(F)cc3c2=O)[C@H]2CCCN(c3cccnc3)C2)ccn1 [Example 12]
++ (ΔTm>10° C.)

Please give measured hSTING FTS binding assay (ΔT C.°) of the following entry: Cn1cc(CN(Cc2ccns2)[C@H]2CCCN(c3cccnc3)C2)c(=O)c2ccccc21 [Example 55]
+ (ΔTm<10° C.)
